Quick reference for EC50 among some binders
- System: T1, human ROR1 (full-length, on the cell surface) (human, UniProt Q01973 30-937)
- T1 construct: whole, on cells; the tumour cell lines carry their own ROR1; also called Ba/F3-ROR1 cells; Jeko-1
- T1 sequence (Q01973 30-937): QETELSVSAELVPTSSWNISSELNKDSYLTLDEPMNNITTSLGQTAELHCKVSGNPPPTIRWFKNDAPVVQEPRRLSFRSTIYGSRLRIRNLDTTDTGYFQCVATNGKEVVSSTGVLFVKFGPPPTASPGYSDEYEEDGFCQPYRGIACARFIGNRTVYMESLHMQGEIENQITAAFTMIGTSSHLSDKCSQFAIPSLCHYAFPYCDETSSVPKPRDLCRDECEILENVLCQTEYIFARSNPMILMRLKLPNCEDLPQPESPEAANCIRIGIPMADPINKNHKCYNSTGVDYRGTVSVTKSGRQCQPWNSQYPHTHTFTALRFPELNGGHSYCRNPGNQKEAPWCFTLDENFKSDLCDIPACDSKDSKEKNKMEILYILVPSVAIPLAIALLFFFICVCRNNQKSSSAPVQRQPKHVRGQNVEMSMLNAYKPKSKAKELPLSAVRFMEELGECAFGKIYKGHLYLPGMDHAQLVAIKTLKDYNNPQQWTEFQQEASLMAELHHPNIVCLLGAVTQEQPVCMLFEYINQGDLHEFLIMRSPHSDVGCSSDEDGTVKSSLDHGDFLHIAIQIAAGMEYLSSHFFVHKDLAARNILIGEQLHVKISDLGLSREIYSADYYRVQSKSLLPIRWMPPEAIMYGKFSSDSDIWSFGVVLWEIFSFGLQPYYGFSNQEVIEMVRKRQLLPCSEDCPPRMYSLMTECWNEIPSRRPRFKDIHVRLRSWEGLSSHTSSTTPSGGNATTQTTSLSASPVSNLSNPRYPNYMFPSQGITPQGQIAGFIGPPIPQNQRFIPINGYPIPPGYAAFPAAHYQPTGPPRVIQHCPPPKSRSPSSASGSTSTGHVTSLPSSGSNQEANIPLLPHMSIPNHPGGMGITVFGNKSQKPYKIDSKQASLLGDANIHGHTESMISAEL
- Test method notes: flow cytometry, Ba/F3-ROR1 cells
Express it in nM; write the number only.

3D8-Hu57 (antibody, human IgG1, kappa, V domains shown, humanized, human IgG1 / kappa) VH: EVQLVESGGGLVQPGGSLRLSCAASGFTFSSYAMSWVRQAPGKGLEWVSSINSGGSTYYPDSVKGRFTISRENAKNSLYLQMNSLRAGDTAVYYCARVNYYGYGDYAMDYWGQGTLVTVSS VL: DIQMTQSPSSLSASVGDRVTITCQASQDISNYLSWFQQKPGKSPKTLIYRANRLVTGVPSRFSGSGSGTDYTFTISSLQPEDIATYYCLQYDEFPYTFGGGTKLEIKR : 0.37
3D8-HuC24 (antibody, human IgG1, kappa, V domains shown, humanized, human IgG1 / kappa) VH: EVQLVESGGGLVQPGGSLRLSCAASGFTFSSYAMSWVRQAPGKGLEWVASINSGGSTYYPDSVKGRFTISRDNAKNSLYLQMNSLRAEDTAVYYCARVNYYGYGDYAMDYWGQGTLVTVSS VL: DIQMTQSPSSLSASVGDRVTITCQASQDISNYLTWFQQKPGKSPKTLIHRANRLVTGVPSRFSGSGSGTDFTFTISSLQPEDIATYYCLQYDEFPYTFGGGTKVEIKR : 0.23
3D8-Hu97 (antibody, human IgG1, kappa, V domains shown, humanized, human IgG1 / kappa) VH: EVQLVESGGGLVQPGGSLRLSCAASGFTFSSYAMSWVRQAPEKRLEWVSSISNGGSTYYPDSVKGRFTISRDNSKNTLYLQMNSLRAEDTAVYYCARVNYYGYGDYAMDYWGQGTLVTVSS VL: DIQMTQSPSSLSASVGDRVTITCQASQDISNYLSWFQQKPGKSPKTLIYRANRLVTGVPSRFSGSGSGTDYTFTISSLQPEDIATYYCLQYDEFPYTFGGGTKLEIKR : 0.3
38F8-Hu27 (antibody, human IgG1, kappa, V domains shown, humanized, human IgG1 / kappa) VH: EVQLVESGGGLVQPGGSLRLSCAASGFTFSNYAMSWVRQAPGKGLEWVASISSGGPTYYPDSVKGRFTVSRDNSKNTLYLQMNSLRAEDTAVYYCARGYRYDVNWYFDVWGAGTMVTVSS VL: DIQMTQSPSSLSASVGDRVTITCQASQDISNYLTWFQQKPGKSPKTLIHRANRLVTGVPSRFSGSGSGTDYTFTISSLQPEDIAIYYCLQYDEFPYTFGGGTKVEIKR : 0.99
38F8-Hu36 (antibody, human IgG1, kappa, V domains shown, humanized, human IgG1 / kappa) VH: QVQLVESGGGLVKPGGSLRLSCAASGFTFSNYAMSWVRQAPGKGLEWVASISSGGPTYYADSVKGRFTISRDNAKNSLYLQMNSLRAEDTAVYYCARGYRYDVNWYFDVWGAGTMVTVSS VL: DIQMTQSPSSLSASVGDRVTITCQASQDINSYLTWFQQKPGKSPKTLIHRANRLVTGVPSRFSGSGSGTDFTFTISSLQPEDIATYYCLQYDEFPYTFGGGTKVEIKR : 1.16

# input Give the value of EC50 reported for the following: 38F8-Hu57 (antibody, human IgG1, kappa, V domains shown, humanized, human IgG1 / kappa) VH: EVQLVESGGGLVQPGGSLRLSCAASGFTFSNYAMSWVRQAPEKRLEWVASISSGGPTYYPDSVKGRFTVSRDNSKNTLYLQMNSLRAEDTAVYYCARGYRYDVNWYFDVWGAGTMVTVSS VL: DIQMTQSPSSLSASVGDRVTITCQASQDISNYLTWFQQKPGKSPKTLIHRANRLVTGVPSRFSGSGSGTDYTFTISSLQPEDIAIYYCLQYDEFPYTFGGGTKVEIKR
# output 0.75

# input Indicate its recorded EC50; the binder in question is 38F8-Hu58 (antibody, human IgG1, kappa, V domains shown, humanized, human IgG1 / kappa) VH: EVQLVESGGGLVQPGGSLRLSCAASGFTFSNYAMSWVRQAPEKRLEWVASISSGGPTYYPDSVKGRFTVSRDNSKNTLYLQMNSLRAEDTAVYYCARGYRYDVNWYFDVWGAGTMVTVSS VL: DIQMTQSPSSLSASVGDRVTITCQASQDINSYLTWFQQKPGKSPKTLIHRANRLVTGVPSRFSGSGSGTDYTFTISSLQPEDIAIYYCLQYDEFPYTFGGGTKVEIKR
# output 1.45

# input Give me measured EC50, please, for this binder: 3D8-Hu46 (antibody, human IgG1, kappa, V domains shown, humanized, human IgG1 / kappa) VH: EVQLVESGGGLVQPGGSLRLSCAASGFTFSSYAMSWVRQAPGKGLEWVSSINSGGSTYYPDSVKGRFTISRDNSKNTLYLQMNSLRAEDTAVYYCARVNYYGYGDYAMDYWGQGTLVTVSS VL: DIQMTQSPSSLSASVGDRVTITCQASQDINSYLSWFQQKPGKSPKTLIYRANRLVTGVPSRFSGSGSGTDYTFTISSLQPEDIATYYCLQYDEFPYTFGGGTKLEIKR
# output 0.39

# input Please look at this binder and report its EC50: 38F8-Hu56 (antibody, human IgG1, kappa, V domains shown, humanized, human IgG1 / kappa) VH: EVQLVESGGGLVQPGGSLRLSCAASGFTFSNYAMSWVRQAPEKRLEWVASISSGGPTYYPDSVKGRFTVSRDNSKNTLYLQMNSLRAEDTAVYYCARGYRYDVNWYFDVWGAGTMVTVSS VL: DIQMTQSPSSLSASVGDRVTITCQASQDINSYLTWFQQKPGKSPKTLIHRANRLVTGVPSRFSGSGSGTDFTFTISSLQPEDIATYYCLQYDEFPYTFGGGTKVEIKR
# output 1.09

# input Please indicate EC50 recorded for 3D8-Hu95 (antibody, human IgG1, kappa, V domains shown, humanized, human IgG1 / kappa) VH: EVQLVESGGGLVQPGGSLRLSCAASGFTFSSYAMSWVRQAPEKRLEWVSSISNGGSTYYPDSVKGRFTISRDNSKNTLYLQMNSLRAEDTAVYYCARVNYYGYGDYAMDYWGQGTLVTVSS VL: DIQMTQSPSSLSASVGDRVTITCQASQDINSYLSWFQQKPGKAPKTLIYRANRLVTGVPSRFSGSGSGTDFTFTISSLQPEDIATYYCLQYDEFPYTFGGGTKLEIKR
# output 0.32
